experiment: xn = mol fraction of the nth substance listed, in the solute-free solvent; conditions: 303.15 K; x2 = 0.8
// label 0 strictly below 10 in solubility (g/100 g solution); label 1 otherwise

Solved entries:
| Compound | Assigned Class |
| --- | --- |
| Cc1c(Br)c(=O)n(C2CCCC2)c2nc(Cl)ncc12 + CC1=CC(=O)CC(C)(C)C1 + CC(C)O | label 0 |
| Cl.N=C(N)NC(=N)N1CCOCC1 + O + CC(C)O | label 1 |
| CCOC(=O)OC1=C(c2cc(C)ccc2C)C(=O)NC12CCC(OC)CC2 (stereo not given) + CC(C)O + O | label 0 |
| CCOC(=O)OC1=C(c2cc(C)ccc2C)C(=O)NC12CCC(OC)CC2 (stereo not given) + CC(C)=O + O | label 1 |

For the next question, use this compound.
In: Could you verify whether the entry COC(=O)C(N)CS.Cl (stereo not given) + CCO + ClCCl shows solubility (g/100 g solution) of no less than 10?
Out: label 1
